compounds and their reported zone of inhibition at 100 µg/mL
system: Aspergillus flavus; assay: Antimicrobial activity against Aspergillus flavus NCIM 524 assessed as diameter of growth inhibition zone at 100 ug/ml after 48 hr by paper disk diffusion method; format: functional; conditions: NCIM 524, 48 h, read-out: DIZ
Your answer is read as mm, so omit the unit and give the number.

{"columns": ["Compound", "zone of inhibition at 100 µg/mL (mm)"],
 "data": [
  ["NC(CCC(=O)n1c(-c2ccc(O)cc2)nc2ccccc2c1=O)C(=O)O (stereo not drawn)", 15],
  ["NC(CCC(=O)n1c(-c2ccc([N+](=O)[O-])cc2)nc2ccccc2c1=O)C(=O)O (stereo not drawn)", 13.6]
]}

Kindly consider the entry below.
Briefly, zone of inhibition at 100 µg/mL measured for NC(CCC(=O)n1c(-c2ccccc2)nc2ccccc2c1=O)C(=O)O (stereo not drawn) : 10
